Target: T1, human CS1 (HuCS1) (human, UniProt Q9NQ25 23-335)
T1 construct: also called FL-HuCS1; SLAMF7
Assay: flow cytometry on L-363 cells; maximum fluorescent value at any tested concentration
Measured quantity: GeoMean (max)
Output: the number by itself.

Measured GeoMean (max), HuCS1.27A12 (antibody, V domains shown, Humanized antibody; It has a human Fc (detected with anti-human Fc); also called Hu27A12) VH: EVQLVESGGGLVQPGGSLRLSCAASGFTFSDYYMAWVRQAPGKGLEWVAEINYDGSSTYYVDSVKGRFTISRDNAKNSLYLQMNSLRAEDTAVYYCARDRGFYFDYWGQGTTVTVSS VL: DVVMTQTPLSLSVTPGQPASISCRSSQSLVHNNGNTYLHWYLQKPGQSPQLLIYKVSNRFSGVPDRFSGSGSGTDFTLKISRVEAEDVGVYFCSQSTHVPPYTFGGGTKVEIK : 24.8

The binder listed as elotuzumab (antibody, IgG1, V domains shown, also called HuLuc63) VH: EVQLVESGGGLVQPGGSLRLSCAASGFDFSRYWMSWVRQAPGKGLEWIGEINPDSSTINYAPSLKDKFIISRDNAKNSLYLQMNSLRAEDTAVYYCARPDGNYWYFDVWGQGTLVTVSS VL: DIQMTQSPSSLSASVGDRVTITCKASQDVGIAVAWYQQKPGKVPKLLIYWASTRHTGVPDRFSGSGSGTDFTLTISSLQPEDVATYYCQQYSSYPYTFGQGTKVEIKR shows GeoMean (max) equal to 17.5

The value of GeoMean (max) measured for the binder HuCS1.31D2.2 (antibody, V domains shown, Humanized antibody; It has a human Fc (detected with anti-human Fc); also called Hu31D2) VH: EVQLVESGGGLVQPGGSLRLSCAASGFTFSDYYMAWVRQAPGKGLEWVADINYDGGSTYYLDSLKSRFTISRDNAKNSLYLQMNSLRAEDTAVYYCARDRGYYFDYWGQGTLVTVSS VL: DVVMTQSPLSLPVTPGEPASISCRSSQSLVHSNGNTYLHWYLQKPGQSPQLLIYKVSNRFSGVPDRFSGSGSGTDFTLKISRVEAEDVGVYFCSQSTHVPPFTFGGGTKVEIK turned out to be 28

The recorded GeoMean (max) for HuCS1.34C3 (antibody, human IgG1, kappa, V domains shown, Humanized IgG1; also called Hu34C3) VH: EVQLVESGGGLVQPGGSLRLSCAASGFTFSDYYMAWVRQAPGKGLEWVASINYDGSSTYYVDSVKGRFTISRDNAKNSLYLQMNSLRAEDTAVYYCARDRGYYFDYWGQGTTVTVSS VL: DVVMTQTPLSLSVTPGQPASISCRSSQSLVHSNGNTYLHWYLQKPGQSPQLLIYKVSNRFSGVPDRFSGSGSGTDFTLKISRVEAEDVGVYFCSQSTHVPPFTFGGGTKVEIKR is 43.5

Origin of measurements: patent US20160122430A1
